Experiment: Tanguay_ZF_120hpf_ANY: Oregon State University Tanguay Lab 120 Hour Post-fertilization zebrafish Assay for Any Mortality and Malformation (AID 2284404)
Calls of active or inactive are those of the source. Rule for the calls: active = hit-call score of the fitted dose curve at least 0.9, where 1 is the maximum; inactive = score below 0.9.
Labels: t (active), f (inactive)

{"columns": ["structureNotation", "answerLabel"],
 "data": [
  ["O=C(O)C(F)(F)C(F)(F)C(F)(F)C(F)(F)C(F)(F)C(F)(F)C(F)(F)C(F)(F)C(F)(F)F", "t"],
  ["O=S(=O)(O)C(F)(F)C(F)(F)C(F)(F)C(F)(F)F", "f"],
  ["NS(=O)(=O)C(F)(F)C(F)(F)C(F)(F)C(F)(F)C(F)(F)C(F)(F)C(F)(F)C(F)(F)F", "t"],
  ["O=C(O)C(F)(F)C(F)(F)C(F)(F)C(F)(F)C(F)(F)C(F)(F)C(F)(F)C(F)(F)F", "f"]
]}
